# system: FGFR4 (Homo sapiens, UniProt P22455)
# Construct: made in house; host or cells: E. coli derived from BL21, infected with T7 phage
# Sequence (P22455 22-802): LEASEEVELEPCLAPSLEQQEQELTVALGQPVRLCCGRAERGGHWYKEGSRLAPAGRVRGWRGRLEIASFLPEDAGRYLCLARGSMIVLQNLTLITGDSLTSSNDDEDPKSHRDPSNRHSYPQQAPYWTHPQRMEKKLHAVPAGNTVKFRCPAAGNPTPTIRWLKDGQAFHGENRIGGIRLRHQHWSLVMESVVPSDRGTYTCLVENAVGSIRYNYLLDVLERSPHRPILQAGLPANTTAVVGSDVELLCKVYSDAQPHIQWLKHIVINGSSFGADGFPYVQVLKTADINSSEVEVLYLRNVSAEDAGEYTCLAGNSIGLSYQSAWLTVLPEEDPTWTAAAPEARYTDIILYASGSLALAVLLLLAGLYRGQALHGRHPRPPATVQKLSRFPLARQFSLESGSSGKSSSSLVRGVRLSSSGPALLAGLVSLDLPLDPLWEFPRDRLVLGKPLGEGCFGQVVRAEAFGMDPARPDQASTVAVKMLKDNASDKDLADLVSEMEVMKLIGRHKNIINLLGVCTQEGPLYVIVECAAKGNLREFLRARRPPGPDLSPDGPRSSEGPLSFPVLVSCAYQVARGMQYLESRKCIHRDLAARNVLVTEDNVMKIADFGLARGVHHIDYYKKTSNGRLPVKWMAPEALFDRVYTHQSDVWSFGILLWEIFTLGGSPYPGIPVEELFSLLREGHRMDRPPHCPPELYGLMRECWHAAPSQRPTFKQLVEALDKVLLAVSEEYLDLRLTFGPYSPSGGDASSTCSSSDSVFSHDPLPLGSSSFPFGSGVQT
# procedure_summary: Kinase binding assay (kinase-tagged T7 phage, qPCR), Kd
# measurement_setup: read-out: FGFR4 (Kd nM)
# Kd values compiled below

Some compounds with recorded Kd:
compound: C[C@@H](Oc1ccc2[nH]nc(-c3ccc(OC4C5CN(S(C)(=O)=O)CC54)nc3)c2c1)c1c(Cl)cncc1Cl (some centres unmarked) [Example 162]
measurement: 0.1 to 100 nM
--
compound: CC(C)N1CCC(Oc2ccc(-c3n[nH]c4ccc(O[C@H](C)c5c(Cl)cncc5Cl)cc34)cc2C#N)CC1 [Example 124]
measurement: 0.1 to 100 nM
--
compound: C[C@@H](Oc1ccc2[nH]nc(-c3cnc4c(c3)N(CC(F)F)CCO4)c2c1)c1c(Cl)cncc1Cl [Example 142]
measurement: 250 to 1000 nM

Given the entry C[C@@H](Oc1ccc2[nH]nc(-c3ccc4c(c3)CCC3(CCNCC3)O4)c2c1)c1c(Cl)cncc1Cl [Example 104] , report its measured Kd.
0.1 to 100 nM

Which measured Kd value corresponds to CCN1CCC2(CC1)OCc1cc(-c3n[nH]c4ccc(O[C@H](C)c5c(C)cnnc5C)cc34)ccc1O2 [Example 106] ?
0.1 to 100 nM

Quick check: Kd of C[C@@H](Oc1ccc2[nH]nc(-c3ccc4c(c3)COC3(CCN(S(C)(=O)=O)CC3)O4)c2c1)c1c(Cl)cncc1Cl [Example 165] ?
0.1 to 100 nM

Hey, just so you know, these numbers are from patent US20240316022A1.
